target_or_system: SMARCA4-HiBiT (Homo sapiens, UniProt P51532)
Construct: SMARCA4-HiBiT knock-in Hela monoclonal cell (CS3023226); host or cells: HeLa monoclonal knock-in line (CRISPR HiBiT knock-in at the endogenous locus, heterozygous)
Sequence (P51532 whole entry): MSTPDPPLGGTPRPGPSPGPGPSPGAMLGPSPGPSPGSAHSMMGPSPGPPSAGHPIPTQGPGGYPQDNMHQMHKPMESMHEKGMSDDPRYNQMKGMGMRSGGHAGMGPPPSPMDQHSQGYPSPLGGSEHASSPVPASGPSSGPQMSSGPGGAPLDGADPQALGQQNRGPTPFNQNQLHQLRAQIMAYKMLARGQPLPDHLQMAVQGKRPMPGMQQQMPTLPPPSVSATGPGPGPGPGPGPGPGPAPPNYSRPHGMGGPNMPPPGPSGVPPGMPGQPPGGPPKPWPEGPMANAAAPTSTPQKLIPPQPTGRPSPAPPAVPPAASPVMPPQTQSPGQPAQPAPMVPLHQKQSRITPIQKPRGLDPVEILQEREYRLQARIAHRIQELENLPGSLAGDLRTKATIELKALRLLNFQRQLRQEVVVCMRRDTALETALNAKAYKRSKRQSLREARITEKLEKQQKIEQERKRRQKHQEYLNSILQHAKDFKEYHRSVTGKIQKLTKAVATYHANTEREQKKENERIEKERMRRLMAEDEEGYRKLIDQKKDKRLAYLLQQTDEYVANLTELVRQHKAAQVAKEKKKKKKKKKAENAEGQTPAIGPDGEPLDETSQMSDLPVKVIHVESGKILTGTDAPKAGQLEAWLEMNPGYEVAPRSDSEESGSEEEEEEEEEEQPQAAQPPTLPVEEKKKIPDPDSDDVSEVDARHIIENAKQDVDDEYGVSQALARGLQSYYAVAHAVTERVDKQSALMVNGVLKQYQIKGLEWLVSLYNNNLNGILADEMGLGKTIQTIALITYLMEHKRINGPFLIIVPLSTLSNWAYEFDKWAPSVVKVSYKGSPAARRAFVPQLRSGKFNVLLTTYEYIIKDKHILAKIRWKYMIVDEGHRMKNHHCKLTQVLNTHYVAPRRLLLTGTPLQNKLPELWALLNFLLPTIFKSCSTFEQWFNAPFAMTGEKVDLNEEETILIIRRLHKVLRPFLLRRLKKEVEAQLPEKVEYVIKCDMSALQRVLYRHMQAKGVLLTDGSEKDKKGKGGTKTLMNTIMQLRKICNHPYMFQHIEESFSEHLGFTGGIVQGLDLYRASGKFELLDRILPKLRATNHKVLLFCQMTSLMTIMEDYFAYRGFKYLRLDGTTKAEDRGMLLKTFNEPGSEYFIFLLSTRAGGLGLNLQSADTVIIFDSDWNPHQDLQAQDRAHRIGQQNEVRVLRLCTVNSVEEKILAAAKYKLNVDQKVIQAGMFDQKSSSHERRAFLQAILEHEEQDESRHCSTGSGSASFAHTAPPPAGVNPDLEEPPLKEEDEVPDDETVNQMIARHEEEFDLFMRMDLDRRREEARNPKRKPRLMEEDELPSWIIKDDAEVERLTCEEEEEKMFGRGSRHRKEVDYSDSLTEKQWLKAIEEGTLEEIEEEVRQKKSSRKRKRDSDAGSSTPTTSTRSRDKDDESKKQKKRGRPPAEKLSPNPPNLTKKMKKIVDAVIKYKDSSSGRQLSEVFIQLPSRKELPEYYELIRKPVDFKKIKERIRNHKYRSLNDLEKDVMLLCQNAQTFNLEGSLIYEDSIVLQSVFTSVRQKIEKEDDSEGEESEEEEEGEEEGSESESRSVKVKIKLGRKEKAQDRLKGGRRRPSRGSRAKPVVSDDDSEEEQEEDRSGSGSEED
experiment_summary: SMARCA4 HiBiT degradation assay in HeLa cells
Assay type: cell-based
condition: 18 hours incubation

[
  {
    "compound": "O=C1CCC(N2C(=O)c3ccc(N4CC[C@@H](CN5C[C@@H]6[C@H](C5)[C@H]6CN5CCN6c7cc(-c8ccccc8O)nnc7NC[C@H]6C5)[C@H](F)C4)cc3C2=O)C(=O)N1 (some centres unmarked) [Example 201]",
    "HeLa-HiBit-SM4 Dmax (%)": "A (A=Dmax>85%)"
  },
  {
    "compound": "CC1CN(c2ccc3c(c2)C(=O)N(C2CCC(=O)NC2=O)C3=O)CCC1CN1C[C@@H]2[C@H](C1)[C@H]2CN1CCN2c3cc(-c4ccccc4O)nnc3NC[C@H]2C1 (some centres unmarked) [Example 198]",
    "HeLa-HiBit-SM4 Dmax (%)": "C (C=50%<Dmax<=75%)"
  },
  {
    "compound": "O=C1CCC(N2C(=O)c3ccc(N4CC[C@H](CN5C[C@@H]6[C@H](C5)[C@H]6CN5CCN6c7cc(-c8cc(F)ccc8O)nnc7NC[C@H]6C5)[C@@H](F)C4)cc3C2=O)C(=O)N1 (some centres unmarked) [Example 277]",
    "HeLa-HiBit-SM4 Dmax (%)": "C (C=50%<Dmax<=75%)"
  },
  {
    "compound": "O=C1CCC(N2C(=O)c3ccc(N4CC[C@H](CN5C[C@@H]6[C@H](C5)[C@H]6CN5CCN6c7cc(-c8cc(F)ccc8O)nnc7NC[C@H]6C5)[C@@H](F)C4)cc3C2=O)C(=O)N1 (some centres unmarked) [Example 278]",
    "HeLa-HiBit-SM4 Dmax (%)": "A (A=Dmax>85%)"
  }
]

###

target_or_system: SMARCA4-HiBiT (Homo sapiens, UniProt P51532)
Construct: SMARCA4-HiBiT knock-in Hela monoclonal cell (CS3023226); host or cells: HeLa monoclonal knock-in line (CRISPR HiBiT knock-in at the endogenous locus, heterozygous)
experiment_summary: SMARCA4 HiBiT degradation assay in HeLa cells
Assay type: cell-based
condition: HeLa, 18 hours incubation, read-out: HeLa-HiBit-SM4 Dmax (%)
Method: HiBiT peptide knock-in of SMARCA2 in LgBiT expressing HEK293T cells was performed by CRISPR-mediated tagging system as described Promega. The homozygous HiBiT knock-in on c-terminus SMARCA2 was confirmed by sanger sequence. SMARCA2-HiBiT knock-in Hela monoclonal cell (CS302366) and SMARCA4-HiBiT knock-in Hela monoclonal cell (CS3023226) were purchased from Promega. The heterozygous HiBiT-knock-in was confirmed by sanger sequence in both SMARCA2-HiBiT and SMARCA4-HiBiT monoclonal cells. […]
Each item that follows carries a reported Dmax.

[
  {
    "compound": "O=C1CCC(N2C(=O)c3ccc(N4CCC(CNC56CCC(C(=O)N7CCN8c9cc(-c%10ccccc%10O)nnc9NC[C@H]8C7)(CC5)CC6)CC4)cc3C2=O)C(=O)N1 (stereo partly drawn)",
    "Dmax": "75 to 85%"
  },
  {
    "compound": "C[C@H]1CN2c3cc(-c4ccccc4O)nnc3NC[C@H]2CN1C[C@H]1[C@@H]2CN(CC3CCN(c4ccc5c(c4)C(=O)N(C4CCC(=O)NC4=O)C5)CC3)C[C@@H]21 (stereo partly drawn)",
    "Dmax": "50 to 75%"
  },
  {
    "compound": "O=C1CCC(N2C(=O)c3ccc(N4CCC(CN5CCC(CCCN6CCN7c8cc(-c9ccccc9O)nnc8NC[C@H]7C6)CC5)CC4)cc3C2=O)C(=O)N1 (stereo partly drawn)",
    "Dmax": "> 85%"
  }
]

###

Dmax: recorded values
target_or_system: SMARCA4-HiBiT (Homo sapiens)
Construct: SMARCA4-HiBiT knock-in Hela monoclonal cell (CS3023226); host or cells: HeLa monoclonal knock-in line (CRISPR HiBiT knock-in at the endogenous locus, heterozygous)
experiment_summary: SMARCA4 HiBiT degradation assay in HeLa cells
Format: cell-based
condition: HeLa, 18 hours incubation, read-out: HeLa-HiBit-SM4 Dmax (%)

[
  {
    "compound": "CC1(CN2C[C@@H]3[C@@H](CN4CCN5c6cc(-c7ccccc7O)nnc6NC[C@H]5C4)[C@@H]3C2)CCN(c2ccc3c(c2)C(=O)N(C2CCC(=O)NC2=O)C3=O)CC1 (some centres unmarked) [Example 91]",
    "target_or_system": "SMARCA4-HiBiT (Homo sapiens)",
    "Dmax": "50 to 75%"
  },
  {
    "compound": "C[C@H]1CN2c3cc(-c4ccccc4O)nnc3NC[C@H]2CN1C[C@H]1[C@@H]2CN(C[C@H]3CCN(c4ccc5c(c4)C(=O)N(C4CCC(=O)NC4=O)C5)C[C@@H]3F)C[C@@H]21 (some centres unmarked) [Example 204]",
    "target_or_system": "SMARCA4-HiBiT (Homo sapiens)",
    "Dmax": "75 to 85%"
  },
  {
    "compound": "O=C1CCC(N2Cc3cc(C4CCN(C5CCN(CCCN6CCN7c8cc(-c9ccccc9O)nnc8NC[C@H]7C6)C5)CC4)ccc3C2=O)C(=O)N1 (some centres unmarked) [Example 208]",
    "target_or_system": "SMARCA4-HiBiT (Homo sapiens)",
    "Dmax": "50 to 75%"
  },
  {
    "compound": "O=C1CCC(N2C(=O)c3ccc(N4CCC(CN5CCC6(CN7CCN8c9cc(-c%10ccccc%10O)nnc9NC[C@H]8C7)CC6C5)CC4)cc3C2=O)C(=O)N1 (some centres unmarked) [Example 171]",
    "target_or_system": "SMARCA4-HiBiT (Homo sapiens)",
    "Dmax": "> 85%"
  },
  {
    "compound": "O=C1CCC(N2Cc3ccc(N4CC[C@H](CN5CCC(C(=O)N6CCN7c8cc(-c9ccccc9O)nnc8NC[C@H]7C6)CC5)[C@@H](F)C4)cc3C2=O)C(=O)N1 (some centres unmarked) [Example 261]",
    "target_or_system": "SMARCA4-HiBiT (Homo sapiens)",
    "Dmax": "75 to 85%"
  },
  {
    "compound": "O=C1CCC(N2C(=O)c3ccc(OC4CCN(CC5CCN(CCN6CCN7c8cc(-c9ccccc9O)nnc8NC[C@H]7C6)CC5)CC4)cc3C2=O)C(=O)N1 (some centres unmarked) [Example 216]",
    "target_or_system": "SMARCA4-HiBiT (Homo sapiens)",
    "Dmax": "50 to 75%"
  },
  {
    "compound": "C[C@@H]1C[C@H](CN2CCC(CN3CCN4c5cc(-c6ccccc6O)nnc5NC[C@H]4C3)CC2)CCN1c1ccc2c(c1)C(=O)N(C1CCC(=O)NC1=O)C2=O (some centres unmarked) [Example 184]",
    "target_or_system": "SMARCA4-HiBiT (Homo sapiens)",
    "Dmax": "> 85%"
  },
  {
    "compound": "O=C1CCC(N2C(=O)c3ccc(N4CCC(CN5CCC(NC6CCN7c8cc(-c9ccccc9O)nnc8NCC7C6)CC5)CC4)cc3C2=O)C(=O)N1 (centres unmarked) [Example 253]",
    "target_or_system": "SMARCA4-HiBiT (Homo sapiens)",
    "Dmax": "50 to 75%"
  },
  {
    "compound": "O=C1CCC(N2C(=O)c3ccc(OC4CCN(CC5CCN(C(=O)N6CCN7c8cc(-c9ccccc9O)nnc8NC[C@H]7C6)CC5)CC4)cc3C2=O)C(=O)N1 (some centres unmarked) [Example 145]",
    "target_or_system": "SMARCA4-HiBiT (Homo sapiens)",
    "Dmax": "75 to 85%"
  },
  {
    "compound": "O=C1CCC(N2C(=O)c3ccc(N4CCC(CN5CCC(CN6CCN7c8cc(-c9ccccc9O)nnc8NC[C@H]7C6)CC5CO)CC4)cc3C2=O)C(=O)N1 (some centres unmarked) [Example 236]",
    "target_or_system": "SMARCA4-HiBiT (Homo sapiens)",
    "Dmax": "75 to 85%"
  },
  {
    "compound": "O=C1CCC(N2C(=O)c3ccc(N4CCC(CN5CCO[C@H](CN6CCN7c8cc(-c9ccccc9O)nnc8NC[C@H]7C6)C5)CC4)cc3C2=O)C(=O)N1 (some centres unmarked) [Example 75]",
    "target_or_system": "SMARCA4-HiBiT (Homo sapiens)",
    "Dmax": "75 to 85%"
  }
]

###

target_or_system: SMARCA2-HiBiT (Homo sapiens, UniProt P51531)
Construct: SMARCA2-HiBiT knock-in Hela monoclonal cell (CS302366); host or cells: HeLa monoclonal knock-in line (CRISPR HiBiT knock-in at the endogenous locus, heterozygous)
Sequence (P51531 whole entry): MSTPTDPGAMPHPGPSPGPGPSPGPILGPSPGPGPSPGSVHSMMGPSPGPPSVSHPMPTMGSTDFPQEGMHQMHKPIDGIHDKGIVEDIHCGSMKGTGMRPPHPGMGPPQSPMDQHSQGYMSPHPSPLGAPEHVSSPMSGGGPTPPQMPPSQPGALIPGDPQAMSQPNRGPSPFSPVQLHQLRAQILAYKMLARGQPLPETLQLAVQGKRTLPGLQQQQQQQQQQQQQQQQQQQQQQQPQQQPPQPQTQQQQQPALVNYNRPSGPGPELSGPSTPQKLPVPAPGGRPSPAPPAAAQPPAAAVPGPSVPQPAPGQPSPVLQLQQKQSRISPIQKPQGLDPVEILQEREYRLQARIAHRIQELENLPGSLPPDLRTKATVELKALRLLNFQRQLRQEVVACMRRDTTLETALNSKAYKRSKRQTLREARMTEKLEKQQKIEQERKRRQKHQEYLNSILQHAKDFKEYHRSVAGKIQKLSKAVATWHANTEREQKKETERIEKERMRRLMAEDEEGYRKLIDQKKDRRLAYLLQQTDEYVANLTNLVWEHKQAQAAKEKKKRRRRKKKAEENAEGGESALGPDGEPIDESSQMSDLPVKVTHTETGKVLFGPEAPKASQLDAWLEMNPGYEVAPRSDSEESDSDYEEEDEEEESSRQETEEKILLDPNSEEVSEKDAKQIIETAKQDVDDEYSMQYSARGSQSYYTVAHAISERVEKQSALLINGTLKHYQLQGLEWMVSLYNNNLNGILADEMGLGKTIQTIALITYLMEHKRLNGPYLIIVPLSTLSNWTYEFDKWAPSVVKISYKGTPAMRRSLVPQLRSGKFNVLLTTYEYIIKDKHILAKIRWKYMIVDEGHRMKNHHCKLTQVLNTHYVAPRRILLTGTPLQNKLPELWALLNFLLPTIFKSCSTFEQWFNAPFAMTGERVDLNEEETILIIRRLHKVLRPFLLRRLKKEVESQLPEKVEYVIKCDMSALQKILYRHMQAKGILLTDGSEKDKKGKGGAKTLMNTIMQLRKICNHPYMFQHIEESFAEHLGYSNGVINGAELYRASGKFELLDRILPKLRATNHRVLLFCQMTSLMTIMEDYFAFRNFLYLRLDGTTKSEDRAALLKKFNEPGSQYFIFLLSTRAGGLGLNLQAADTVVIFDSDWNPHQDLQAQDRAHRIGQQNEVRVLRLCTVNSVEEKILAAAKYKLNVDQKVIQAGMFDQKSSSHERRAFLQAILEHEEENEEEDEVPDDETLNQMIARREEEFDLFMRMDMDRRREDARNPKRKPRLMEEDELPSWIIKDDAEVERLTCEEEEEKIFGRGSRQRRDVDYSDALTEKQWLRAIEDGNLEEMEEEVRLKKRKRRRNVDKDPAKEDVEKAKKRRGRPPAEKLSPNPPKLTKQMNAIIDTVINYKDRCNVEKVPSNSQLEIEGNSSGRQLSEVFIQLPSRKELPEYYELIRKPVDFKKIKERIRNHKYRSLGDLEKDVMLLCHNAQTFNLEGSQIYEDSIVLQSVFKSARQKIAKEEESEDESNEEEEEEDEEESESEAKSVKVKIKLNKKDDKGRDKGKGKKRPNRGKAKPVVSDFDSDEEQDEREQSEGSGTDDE
experiment_summary: SMARCA2 HiBiT degradation assay in HeLa cells
Format: cell-based
condition: HeLa, 18 hours incubation, read-out: HeLa-HiBit-SM2 Dmax (%)
Procedure: HiBiT peptide knock-in of SMARCA2 in LgBiT expressing HEK293T cells was performed by CRISPR-mediated tagging system as described Promega. The homozygous HiBiT knock-in on c-terminus SMARCA2 was confirmed by sanger sequence. SMARCA2-HiBiT knock-in Hela monoclonal cell (CS302366) and SMARCA4-HiBiT knock-in Hela monoclonal cell (CS3023226) were purchased from Promega. The heterozygous HiBiT-knock-in was confirmed by sanger sequence in both SMARCA2-HiBiT and SMARCA4-HiBiT monoclonal cells. […]
Listed here: items and their measured Dmax.

[
  {
    "molecule": "O=C1CCC(N2C(=O)c3ccc(N4CCC(F)(F)C(CN5C[C@@H]6[C@H](C5)[C@H]6CN5CCN6c7cc(-c8ccccc8O)nnc7NC[C@H]6C5)C4)cc3C2=O)C(=O)N1 (some centres unmarked) [Example 55]",
    "Dmax": "50 to 75%"
  },
  {
    "molecule": "O=C1CCC(N2Cc3ccc(N4CCC(CN5CCC(F)(CN6CCN7c8cc(-c9ccccc9O)nnc8NC[C@H]7C6)CC5)CC4)cc3C2=O)C(=O)N1 (some centres unmarked) [Example 233]",
    "Dmax": "> 85%"
  },
  {
    "molecule": "CC1CC(CN2CCC(CN3CCN4c5cc(-c6ccccc6O)nnc5NC[C@H]4C3)CC2)CCN1c1ccc2c(c1)C(=O)N(C1CCC(=O)NC1=O)C2=O (some centres unmarked) [Example 148]",
    "Dmax": "> 85%"
  },
  {
    "molecule": "O=C1CCC(N2C(=O)c3ccc(C4CCN(C5CCN(CCN6CCN7c8cc(-c9ccccc9O)nnc8NC[C@H]7C6)C5)CC4)cc3C2=O)C(=O)N1 (some centres unmarked) [Example 243]",
    "Dmax": "> 85%"
  },
  {
    "molecule": "O=C1CCC(N2C(=O)c3ccc(N4CC(CN5CCC(C(=O)N6CCN7c8cc(-c9ccccc9O)nnc8NC[C@H]7C6)CC5)C4)cc3C2=O)C(=O)N1 (some centres unmarked) [Example 86]",
    "Dmax": "> 85%"
  },
  {
    "molecule": "C[C@H]1CN2c3cc(-c4ccccc4O)nnc3NC[C@H]2CN1CC1CCN(CC2CCN(c3ccc4c(c3)C(=O)N(C3CCC(=O)NC3=O)C4=O)CC2)CC1 (some centres unmarked) [Example 28]",
    "Dmax": "> 85%"
  },
  {
    "molecule": "O=C1CCC(N2Cc3cc(N4CCC(CN5C[C@@H]6[C@H](C5)[C@H]6CN5CCN6c7cc(-c8ccccc8O)nnc7NC[C@H]6C5)CC4)ccc3C2=O)C(=O)N1 (some centres unmarked) [Example 92]",
    "Dmax": "> 85%"
  },
  {
    "molecule": "O=C1CCC(N2C(=O)c3ccc(N4Cc5cnc(N6C[C@@H]7[C@@H](CN8CCN9c%10cc(-c%11ccccc%11O)nnc%10NC[C@H]9C8)[C@@H]7C6)nc5C4)cc3C2=O)C(=O)N1 (some centres unmarked) [Example 58]",
    "Dmax": "50 to 75%"
  },
  {
    "molecule": "CC1CN(CC2CCN(c3ccc4c(c3)C(=O)N(C3CCC(=O)NC3=O)C4)CC2)CCC1C(=O)N1CCN2c3cc(-c4ccccc4O)nnc3NC[C@H]2C1 (some centres unmarked) [Example 264]",
    "Dmax": "> 85%"
  },
  {
    "molecule": "CN(CCN1CCC(C(=O)N2CCN3c4cc(-c5ccccc5O)nnc4NC[C@H]3C2)CC1)c1ccc2c(c1)C(=O)N(C1CCC(=O)NC1=O)C2=O (some centres unmarked) [Example 222]",
    "Dmax": "50 to 75%"
  },
  {
    "molecule": "O=C1CCC(N2C(=O)c3ccc(NCCN4CCN(C(=O)N5CCN6c7cc(-c8ccccc8O)nnc7NC[C@H]6C5)CC4)cc3C2=O)C(=O)N1 (some centres unmarked) [Example 219]",
    "Dmax": "50 to 75%"
  }
]
